- assay remarks: Cell Viability - LYMP2-013 (AID 970);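 further: cells exposed to compound for 24 h at 37 °C; 0% = DMSO only and full inhibition = tetraoctylammonium bromide control; nearly all actives have a fitted effect of over 55% in size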
- study conditions: LYMP2-013 lymphoblastoid cells viability; series mostly up to 92.2 µM
Inconclusive results are not listed. Active and inactive are the calls of the source. The call rests on the fitted dose curve; in most records, active means well fitted cell-killing curve with a large enough effect; inconclusive means small, poorly fitted or top-dose-only effect; inactive means flat fitted curve, though single readings scatter.
reported metric: outcome

Sample answers from the record:
1) S=C1NC=NC2N=CNC12 (stereo unspecified)    inactive
2) c1ccc2c(c1)c1cccc3ccc4cccc2c4c31    inactive
3) O=C1c2ccccc2C(=O)C1c1ccc2ccccc2n1    inactive
4) Clc1cc(Cl)c(Cl)c(Cl)c1Cl    inactive
5) O=C(/C=C/c1ccc(O)c(O)c1)O[C@@H](C(=O)O)[C@@H](OC(=O)/C=C/c1ccc(O)c(O)c1)C(=O)O    inactive

Q: Item "c1ccc2c(c1)[nH]c1ccccc12" has what recorded outcome?
Result: inactive

---

- Test system: AS120
- assay remarks: qHTS profiling for inhibitors of Plasmodium falciparum proliferation (AID 504749); further: nearly all actives have a fitted effect of over 60% in size
- study conditions: P. falciparum in erythrocytes, SYBR Green DNA, 72 h; series mostly up to 28.7 µM
Inconclusive results are not listed. The source made the active and inactive calls. The call rests on the fitted dose curve; in most records, active means well fitted inhibition curve with a large enough effect; inconclusive means small, poorly fitted or top-dose-only effect; inactive means flat fitted curve, though single readings scatter.
Returns: one label drawn from label 1 = active, label 0 = inactive

See these solved cases before continuing.
1. S=C1NC=NC2N=CNC12 (stereo not given)    label 0
2. C/C=C\c1ccc(OC)cc1    label 0
3. CC(C)(CO)C(O)C(=O)NCCCC(=O)O (stereo not given)    label 1

Q: What call does the record list for CCC(C)n1ncn(-c2ccc(N3CCN(c4ccc(OCC5COC(Cn6cncn6)(c6ccc(Cl)cc6Cl)O5)cc4)CC3)cc2)c1=O (stereo not given) ?
Result: label 0

Q: What call does the record list for Cc1cc(CC(C)CC(C)(C)C)n(O)c(=O)c1 (stereo not given) ?
Result: label 1

Q: What call does the record list for "CN1CC[C@H](CN2c3ccccc3Sc3ccccc32)C1" ?
Result: label 1

Q: What call does the record list for "CC1(C)S[C@@H]2[C@H](NC(=O)COc3ccccc3)C(=O)N2[C@H]1C(=O)O" ?
Result: label 0

Q: What call does the record list for NC1=NC(S)C2N=CN=C2N1 (stereo not given) ?
Result: label 0

Q: What call does the record list for CC1CCC(C(C)C)C(OC(=O)c2ccccc2O)C1 (stereo not given) ?
Result: label 0

Q: What call does the record list for CO[C@@H]1[C@@H](OC2OC(C)C(OC3CC(C)(O)C(OC(=O)CC(C)C)C(C)O3)C(N(C)C)C2O)[C@@H](CC=O)C[C@@H](C)C(=O)/C=C\C2O[C@H]2C[C@@H](C)OC(=O)C[C@H]1OC(C)=O (stereo not given in full) ?
Result: label 1

---

- experimental target: Rap guanine nucleotide exchange factor 4 (Homo sapiens)
- assay remarks: Confirmatory qHTS for antagonist of cAMP-regulated guanine nucleotide exchange factor 4 (EPAC2) (AID 1645885); further: nearly all actives have a fitted effect of over 25% in size
- study conditions: EPAC2 Rap1B-BODIPY-GDP exchange fluorescence, biochemical; series mostly up to 12.7 µM
Results filed as inconclusive are left out. Active and inactive are the calls of the source. Calls follow the shape of the dose curve; as a rule, active = well fitted inhibition curve with a large enough effect; inconclusive = small, poorly fitted or top-dose-only effect; inactive = no such curve, though single readings can be large or run the other way.
Returns: one label drawn from active, inactive

See these solved cases before continuing.
1. Cc1ccc(/C=C/C(=O)Nc2nnc(SCc3ccc(C#N)cc3)s2)o1    inactive
2. COc1cccc(S(=O)(=O)Nc2ccc3c(c2)[C@@H]2C[C@@H](CC(=O)NCc4ccc(Cl)cc4)O[C@@H](CO)[C@@H]2O3)c1    inactive
3. Cc1ccc(NC2c3ncccc3C(=O)N2Cc2cccs2)cc1 (stereo unspecified)    inactive
4. COc1ccc(OC)c(NC(=O)CSc2ncnc3sc(C)cc23)c1    inactive
5. COCCn1c2nc(=O)n(-c3ccccc3)c(=O)c-2nc2ccccc21    active

Q: What call does the record list for "COc1cc(O)c(C=NN2C(=O)CSC2=S)c(OC)c1" ?
Result: inactive

Q: What call does the record list for "Cc1cc(C)c2cccc(N)c2n1" ?
Result: inactive

Q: What call does the record list for "COCCCn1c(=O)/c(=C\c2ccccc2OC(C)C)s/c1=C(/C#N)C(=O)Nc1ccc(C(=O)O)cc1" ?
Result: inactive

Q: What call does the record list for CSc1ccccc1NC(=O)CN1c2ccccc2CC1C (stereo unspecified) ?
Result: inactive

Q: What call does the record list for "Cc1ccc(C)c(N2CCN(C(=O)c3cccn4c(=O)c5ccccc5nc34)CC2)c1" ?
Result: inactive

Q: What call does the record list for "CCc1ccc(N=C2NC(=O)/C(=C/c3ccc(OCC(=O)O)cc3)S2)cc1" ?
Result: inactive

Q: What call does the record list for "FC(F)(F)c1cccc(CN2CCC(c3cc(-c4cccs4)n[nH]3)CC2)c1" ?
Result: inactive

Q: What call does the record list for "COC(=O)C1=C(C)N(Cc2ccccc2)C(=O)N[C@H]1c1cccc(C(F)(F)F)c1" ?
Result: inactive

Q: What call does the record list for "O=S1(=O)CCOC[C@H](CC2CCCCC2)N1Cc1cccc(C(F)(F)F)c1" ?
Result: inactive

Q: What call does the record list for "CCN(Cc1ccccc1)S(=O)(=O)c1cc2c3c(c1)CCN3C(=O)CC2" ?
Result: inactive

Q: What call does the record list for "COc1cccc(-c2nc(SCC(=O)Nc3nc(-c4ccccc4)c(C)s3)[nH]c(=O)c2C#N)c1" ?
Result: inactive

Q: What call does the record list for "O=C(CSc1ncnc2[nH]ncc12)Nc1cccc(Oc2ccccc2)c1" ?
Result: inactive

Q: What call does the record list for "CC(C)CCN1C(=O)c2cccc3c(N)ccc(c23)C1=O" ?
Result: inactive

Q: What call does the record list for CC(Oc1ccc(Br)cc1)C(=O)NCC(c1cccs1)N1CCOCC1 (stereo unspecified) ?
Result: inactive

Q: What call does the record list for "Cc1cc(C)cc(-n2ccnc2SCC(=O)Nc2ccc3c(c2)OCO3)c1" ?
Result: inactive

Q: What call does the record list for "O=C(CSc1nc2ccc(Cl)cc2[nH]1)N1CCN(C(=O)c2ccco2)CC1" ?
Result: inactive

---

- assay remarks: Cell Viability - Mesenchymal (AID 546);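 further: cells exposed to compound for 40 hours before reading; 0% = DMSO only and -100% = 100 µM tamoxifen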
- study conditions: mesenchymal cells viability, qHTS; at 91.7 µM (top of the series)
Records with an inconclusive call do not appear.
reported metric: activity change, negative = cytotoxicity (%)
Supply the numeric figure in %, leaving out any unit text.

Sample answers from the record:
1) CC(C)=CCCC(C)CCO (configuration not stated)    5.35
2) Cc1cccc([N+](=O)[O-])c1C    1.97
3) COCC(=O)O    2.06
4) CC1(C)CC(N=C=O)CC(C)(CN=C=O)C1 (configuration not stated)    8.39
5) C=CCc1ccc(OC)c(OC)c1    -7.19
6) COC(=O)CCCCC(=O)OC    1.32

Q: Item "C=CCOC(=O)c1ccccc1C(=O)OCC=C" has what recorded activity change, negative = cytotoxicity?
Result: -9.3

---

- assay remarks: NFAT Signaling Pathway (AID 444);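 further: carbachol stimulus at about its EC50 of 1 µM final; on the % scale 0 is the no-effect control and ±100 the full control effect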
- study conditions: Jurkat NFAT-bla M1, carbachol, beta-lactamase ratio, 5 h; at 7.69 µM (top of the series) unless noted
Results filed as inconclusive are left out. Active and inactive are the calls of the source. Calls come from the whole dose curve; as a rule, active = well fitted curve in either direction with a large enough effect (not every such curve was filed as active); inconclusive = small, poorly fitted or top-dose-only effect, or another doubt; inactive = flat fitted curve, though single readings scatter.
reported metric: activity change, negative = inhibition

Sample answers from the record:
1. O=C1c2ccccc2C(=O)C1c1ccc2ccccc2n1    21.8% [at 17.2 µM] (inactive)
2. N#Cc1ccccc1-c1ccc2ncnc(NCc3cccnc3)c2c1    17.5% (inactive)
3. COc1ccc(CNc2nc(-c3cccnc3)nc3ccccc23)c(OC)c1    6.84% (inactive)
4. COc1ccccc1CNc1ncncc1-c1ccccc1Cl    -21.7% (inactive)
5. COc1cccc(Cn2c(=O)c(CCc3ccccc3)nc3cnc(N4CCN(C)CC4)nc32)c1    8.33% (inactive)
6. CN1CCN(c2ncc3nc(-c4cn(C)c5ccccc45)c(=O)n(C[C@H]4CCCO4)c3n2)CC1    3.64% (inactive)
7. COc1ccc(Oc2ncc3nc(-c4cccc(C#N)c4)c(=O)n(CCC#N)c3n2)cc1    14.2% (inactive)
8. CN(Cc1ccco1)c1ncnc2ccc(-c3cccc(NS(C)(=O)=O)c3)cc12    14.3% (inactive)

Q: Item "COCCNc1ncnc2ccc(-c3ccccc3OC)cc12" has what recorded activity change, negative = inhibition?
Result: 2.23% (inactive)

Q: Item "COc1ccc2[nH]cc(CCNc3ncncc3-c3cccc(C#N)c3)c2c1" has what recorded activity change, negative = inhibition?
Result: -10.2% (inactive)

Q: Item "CN(C)c1ncc2nc(CCc3ccccc3)c(=O)n(-c3ccccc3)c2n1" has what recorded activity change, negative = inhibition?
Result: 12.7% (inactive)

Q: Item "CN(C)c1ncc2nc(CCc3ccccc3)c(=O)n(CCc3ccccc3)c2n1" has what recorded activity change, negative = inhibition?
Result: -22.4% (inactive)

Q: Item "COc1ccccc1-c1nc(N2CCN(C)CC2)c2ccccc2n1" has what recorded activity change, negative = inhibition?
Result: 4.89% (inactive)

---

- experimental target: Rap guanine nucleotide exchange factor 3 (Homo sapiens) (UniProt O95398)
- Sequence (O95398 whole entry, looked up): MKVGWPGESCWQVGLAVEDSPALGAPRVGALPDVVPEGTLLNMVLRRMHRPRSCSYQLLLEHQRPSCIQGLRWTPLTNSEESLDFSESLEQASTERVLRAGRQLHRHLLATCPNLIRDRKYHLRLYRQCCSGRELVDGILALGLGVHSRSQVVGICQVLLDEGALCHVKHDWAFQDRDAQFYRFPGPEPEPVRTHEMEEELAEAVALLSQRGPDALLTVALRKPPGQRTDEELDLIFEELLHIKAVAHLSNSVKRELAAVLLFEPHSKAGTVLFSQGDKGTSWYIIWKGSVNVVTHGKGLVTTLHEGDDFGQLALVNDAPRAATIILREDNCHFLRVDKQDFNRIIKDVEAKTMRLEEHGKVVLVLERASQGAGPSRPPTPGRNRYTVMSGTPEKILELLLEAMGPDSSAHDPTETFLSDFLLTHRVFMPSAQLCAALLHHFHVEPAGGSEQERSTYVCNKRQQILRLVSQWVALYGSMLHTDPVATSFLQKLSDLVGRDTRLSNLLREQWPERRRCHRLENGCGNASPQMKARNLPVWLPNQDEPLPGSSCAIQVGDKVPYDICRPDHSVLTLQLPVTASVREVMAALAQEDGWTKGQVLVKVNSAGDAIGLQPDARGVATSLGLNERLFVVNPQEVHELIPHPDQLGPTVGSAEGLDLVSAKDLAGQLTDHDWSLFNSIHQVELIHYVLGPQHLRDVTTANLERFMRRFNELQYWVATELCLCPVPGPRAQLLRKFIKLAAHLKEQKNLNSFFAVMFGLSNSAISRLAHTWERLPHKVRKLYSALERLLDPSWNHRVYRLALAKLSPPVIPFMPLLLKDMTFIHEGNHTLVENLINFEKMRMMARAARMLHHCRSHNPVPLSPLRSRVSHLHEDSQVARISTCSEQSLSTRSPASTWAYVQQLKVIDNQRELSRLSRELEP
- assay remarks: Counterscreen qHTS for antagonist of cAMP-regulated guanine nucleotide exchange factor 3 (EPAC1) (AID 1645888);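 further: fluorescence loss as bound BODIPY-GDP is released from Rap1B; % of control where 0% means no effect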
- study conditions: Rap1B-BODIPY-GDP nucleotide exchange, fluorescence; series mostly up to 154 µM
Records with an inconclusive call do not appear. The source made the active and inactive calls. The call rests on the fitted dose curve; in most records, active means well fitted inhibition curve with a large enough effect; inconclusive means small, poorly fitted or top-dose-only effect; inactive means no such curve, though single readings can be large or run the other way.
reported metric: activity change, negative = inhibition

Sample answers from the record:
1. CC(C)=CCC[C@H](C)C[C@@H]1Cc2[nH][nH]c(=O)c2[C@H](c2ccc(F)cc2)O1    inactive
2. Cc1ccc(C(=O)Cc2ccccc2)c(O)c1    -3.71% [at 30.8 µM] (inactive)
3. O=C(NCCOc1ccccc1F)c1ccccc1SCc1ccc(F)cc1    inactive
4. COc1cc2c(cc1OC)C1(C)N(CC2)C(C(C)=O)=NN1c1ccc(Cl)cc1 (stereo unspecified)    5.93% [at 30.8 µM] (inactive)
5. COCCn1c(-c2ccc(OC)cc2)c(-c2ccc(OC)cc2)oc1=O    inactive

Q: Item COc1ccc(C2CC(=O)Oc3cc(C)cc(C)c32)cc1 (stereo unspecified) has what recorded activity change, negative = inhibition?
Result: inactive

Q: Item "COc1ccc(C(=O)c2nccc3ccccc23)cc1" has what recorded activity change, negative = inhibition?
Result: inactive

Q: Item "Cc1ccc(S(=O)(=O)N2CCN(c3ncnc4sccc34)CC2)cc1C" has what recorded activity change, negative = inhibition?
Result: inactive

Q: Item "C#Cc1ccc([C@@H]2C=C(C(=O)NCc3ccccc3)O[C@H](OCC)[C@H]2CCCO)cc1" has what recorded activity change, negative = inhibition?
Result: inactive

Q: Item "O=C(c1ccccc1Br)N(Cc1ccccc1)c1ccccc1" has what recorded activity change, negative = inhibition?
Result: -1.15% [at 30.8 µM] (inactive)

Q: Item "CCOC(=O)N1CCC(Nc2nc3ccccc3n3cnnc23)CC1" has what recorded activity change, negative = inhibition?
Result: -12.2% [at 30.8 µM] (inactive)
